- Test system: 521955-158-R2-J5-PDC complex spheroid viability
- Protocol Description: Anticancer human tumor 521955-158-R2-J5-PDC patient-derived pancreatic carcinoma cell line growth inhibition [GQUAD]
- Measurement Conditions: second compound 0.0316 µM; first compound 0.1 µM; hits give low values
Observable: viability, T/C

// solved cases for viability, T/C follow
### Prompt # returns recorded viability, T/C (system: 521955-158-R2-J5-PDC complex spheroid viability) for CC1COCCN1c1cc(-c2ccnn2C)c2ccnc(-c3ccn[nH]3)c2n1 (stereo not given) + Cc1[nH]c2ccc(F)cc2c1-c1nc2c3cccnc3c3ncccc3c2[nH]1
### Response 16.8%

### Prompt # returns recorded viability, T/C (system: 521955-158-R2-J5-PDC complex spheroid viability) for O=C(NO)c1cnc(N2CCN(S(=O)(=O)c3ccc4ccccc4c3)CC2)nc1 + Cc1cnc(CNC(=O)c2c(=O)c3ccc(N4CCCN(C)CC4)nc3n3c2sc2ccccc23)cn1
### Response 78.9%

### Prompt # returns recorded viability, T/C (system: 521955-158-R2-J5-PDC complex spheroid viability) for CCCS(=O)(=O)Nc1ccc(F)c(C(=O)c2c[nH]c3ncc(-c4ccc(Cl)cc4)cc23)c1F + Cc1cnc(CNC(=O)c2c(=O)c3ccc(N4CCCN(C)CC4)nc3n3c2sc2ccccc23)cn1
### Response 63.5%

### Prompt # returns recorded viability, T/C (system: 521955-158-R2-J5-PDC complex spheroid viability) for COc1ncnc(C2CC2)c1-c1ncc2cnn(Cc3ccc(-c4nc(C(F)(F)F)cn4C(C)C)cc3)c2n1 + Cc1[nH]c2ccc(F)cc2c1-c1nc2c3cccnc3c3ncccc3c2[nH]1
### Response 103%

### Prompt # returns recorded viability, T/C (system: 521955-158-R2-J5-PDC complex spheroid viability) for CC1COCCN1c1cc(C2(S(C)(=N)=O)CC2)nc(-c2ccnc3[nH]ccc23)n1 (stereo not given) + Cc1cnc(CNC(=O)c2c(=O)c3ccc(N4CCCN(C)CC4)nc3n3c2sc2ccccc23)cn1
### Response 86.1%

### Prompt # returns recorded viability, T/C (system: 521955-158-R2-J5-PDC complex spheroid viability) for CC1COCCN1c1cc(C2(S(C)(=N)=O)CC2)nc(-c2ccnc3[nH]ccc23)n1 (stereo not given) + Cc1[nH]c2ccc(F)cc2c1-c1nc2c3cccnc3c3ncccc3c2[nH]1
### Response 103%

Further cases:
### Prompt # returns recorded viability, T/C (system: 521955-158-R2-J5-PDC complex spheroid viability) for C=CCn1c(=O)c2cnc(Nc3ccc(N4CCN(C)CC4)cc3)nc2n1-c1cccc(C(C)(C)O)n1 + Cc1[nH]c2ccc(F)cc2c1-c1nc2c3cccnc3c3ncccc3c2[nH]1;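 also: spheroids exposed to agents for one week before reading; 100% = DMSO vehicle control viability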
### Response 84.9%

### Prompt # returns recorded viability, T/C (system: 521955-158-R2-J5-PDC complex spheroid viability) for Cc1cccc(N(C)C(=O)C2C(O)CCN2c2nc(C)cc(C(F)(F)F)c2C#N)c1 (stereo not given) + Cc1cnc(CNC(=O)c2c(=O)c3ccc(N4CCCN(C)CC4)nc3n3c2sc2ccccc23)cn1;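 also: spheroids exposed to agents for one week before reading; 100% = DMSO vehicle control viability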
### Response 75%

### Prompt # returns recorded viability, T/C (system: 521955-158-R2-J5-PDC complex spheroid viability) for CC(=O)O[C@H]1C(=O)[C@@]2(C)[C@H]([C@H](OC(=O)c3ccccc3)[C@]3(O)C[C@H](OC(=O)[C@H](O)[C@@H](NC(=O)c4ccccc4)c4ccccc4)C(C)=C1C3(C)C)[C@]1(OC(C)=O)CO[C@@H]1C[C@@H]2O + CN(C)c1ccc(Nc2c3ccc(NC(=O)CCN4CCCC4)cc3nc3cc(NC(=O)CCN4CCCC4)ccc23)cc1;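 also: spheroids exposed to agents for one week before reading; 100% = DMSO vehicle control viability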
### Response 40.9%

### Prompt # returns recorded viability, T/C (system: 521955-158-R2-J5-PDC complex spheroid viability) for C=CCn1c(=O)c2cnc(Nc3ccc(N4CCN(C)CC4)cc3)nc2n1-c1cccc(C(C)(C)O)n1 + Cc1cnc(CNC(=O)c2c(=O)c3ccc(N4CCCN(C)CC4)nc3n3c2sc2ccccc23)cn1;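 also: spheroids exposed to agents for one week before reading; 100% = DMSO vehicle control viability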
### Response 44.9%

Source: PubChem BioAssay AID2060495
